# credit: patent US20250276090A1

Test system: AAVS1
Test: GFP insertion at AAVS1 in T cells with SpyCas9 RNP and gapped AAV templates, flow cytometry (Example 6)
Assay type: cell-based, human
Details: Donor 1; Template B; day 7 post-editing
Strand notation (5' to 3'): a small letter for the sugar, then the base; units joined by * are phosphorothioate-linked, units joined directly phosphodiester-linked; [ ] holds rarer units or linkages, { } end groups; capitals alone tell only the bases. m = 2'-O-methyl; r = 2'-OH (RNA)
recorded-endpoint: Mean percentage of T cells positive for GFP expression (%)
Only the number, expressed in %, is required.

Which Mean percentage of T cells positive for GFP expression value is on record for G013564: AAVS1 SpyCas9 guide RNA, guide sequence SEQ ID NO: 261, chr19:55115836-55115856 (nucleic acid) guide: mU*mA*mU*rArArGrGrUrGrGrUrCrCrCrArGrCrUrCrGrGrUrUrUrUrArGrAmGmCmUmAmGmAmAmAmUmAmGmCrArArGrUrUrArArArArUrArArGrGrCrUrArGrUrCrCrGrUrUrArUrCrAmAmCmUmUmGmAmAmAmAmAmGmUmGmGmCmAmCmCmGmAmGmUmCmGmGmUmGmCmU*mU*mU*mU ?
61.50

Follow-up entry: G013563: AAVS1 SpyCas9 guide RNA, guide sequence SEQ ID NO: 260, chr19:55115835-55115855 (nucleic acid) guide: mA*mU*mA*rUrArArGrGrUrGrGrUrCrCrCrArGrCrUrCrGrUrUrUrUrArGrAmGmCmUmAmGmAmAmAmUmAmGmCrArArGrUrUrArArArArUrArArGrGrCrUrArGrUrCrCrGrUrUrArUrCrAmAmCmUmUmGmAmAmAmAmAmGmUmGmGmCmAmCmCmGmAmGmUmCmGmGmUmGmCmU*mU*mU*mU
69.15
